# Study target: HLA-A*0201 (human)
Use 0.0006 as the dividing line for binding affinity ratio (IC50 of standard peptide / IC50 of test peptide), with the line itself on the YES side and lower values as NO.

DLNLGNLNV (modifications not checked) [HBV POL 40 9-mer …] ... NO
LLDYQGML (modifications not checked) [HBV ENV 260 LLDYQGML] ... NO
NLLSSNLSWL (modifications not checked) [HBV POL 406 peptide …] ... YES
LVSFGVWI (modifications not checked) [HBV NUC 119 peptide LVSFGVWI] ... NO
LIFLLVLL (modifications not checked) [HBV ENV 254 LIFLLVLL] ... YES
FLFILLLCL (modifications not checked) [HBV ENV 246 9-mer …] ... NO
LLGCAANWI (modifications not checked) [HBV POL 752 …] ... YES
NLGNLNVSI (modifications not checked) [HBV POL 42 peptide …] ... YES
LLTRILTI (modifications not checked) [HBV ENV 184 LLTRILTI] ... YES
